- study_target: Solute carrier family 2, facilitated glucose transporter member 1 (Homo sapiens)
- assay_notes: ST_JUDE_LEISH: Cytotoxicity at 2uM final concentration against transgenic Leishmania Mexicana promastigotes LmGLUT1 that are glucose transport deficient and complemented with the human glucose transporter GLUT1. Activity is measured by DNA content using SYBR green in vitro
- Type: functional
assay_metric: inhibition

smiles: Cc1cc2ncn(-c3nccc(NCc4cccnc4)n3)c2cc1C
study_target: Solute carrier family 2, facilitated glucose transporter member 1 (Homo sapiens)
inhibition: 4.32%

stdin: Looking for the measured inhibition of `O=C(Nc1ccc(-c2nc3ccccc3[nH]2)cc1)c1ccc([N+](=O)[O-])s1` , can you help?
stdout: 5.3%

stdin: Need inhibition of `FC(F)(F)c1ccc2c(NN=Cc3cccc(Cl)c3)ccnc2c1` , thanks.
stdout: 5.93%

stdin: Param item = `Cc1noc(-c2cccs2)c1C(=O)NCCc1cccc(Cl)c1` ; retrieve measured inhibition.
stdout: 5.34%

stdin: Suppose we examine the compound `Cc1ccc(S(=O)(=O)N(CCCN2CCN(C)CC2)Cc2csc(-c3ccc(CNCc4ccccc4)cc3)n2)cc1` ; what inhibition value has been reported?
stdout: 9.12%

###

- study_target: Solute carrier family 2, facilitated glucose transporter member 1 (Homo sapiens) (UniProt P11166)
- Sequence (P11166 whole entry): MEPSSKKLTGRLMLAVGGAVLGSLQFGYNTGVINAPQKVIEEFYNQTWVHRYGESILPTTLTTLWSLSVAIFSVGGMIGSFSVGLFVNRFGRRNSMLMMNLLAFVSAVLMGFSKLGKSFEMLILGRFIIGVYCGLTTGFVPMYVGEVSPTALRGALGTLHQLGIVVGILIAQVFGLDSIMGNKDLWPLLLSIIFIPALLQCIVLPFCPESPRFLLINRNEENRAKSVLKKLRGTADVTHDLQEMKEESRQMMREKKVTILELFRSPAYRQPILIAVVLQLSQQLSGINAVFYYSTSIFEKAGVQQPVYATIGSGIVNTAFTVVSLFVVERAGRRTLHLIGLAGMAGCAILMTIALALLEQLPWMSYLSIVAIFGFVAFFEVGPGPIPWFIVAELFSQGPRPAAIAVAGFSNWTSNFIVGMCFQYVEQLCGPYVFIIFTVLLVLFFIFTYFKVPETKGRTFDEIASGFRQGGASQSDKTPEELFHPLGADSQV
- assay_notes: ST_JUDE_LEISH: Cytotoxicity at 2uM final concentration against transgenic Leishmania Mexicana promastigotes LmGLUT1 that are glucose transport deficient and complemented with the human glucose transporter GLUT1. Activity is measured by DNA content using SYBR green in vitro
- Format: functional
assay_metric: inhibition (%)
Quick reminder: number only, in %, skip the unit.

Example cases with answers are listed next.
compound: CCn1c(-c2nonc2N)nc2c(-c3cccc(NC(=O)Nc4cccc(Cl)c4)c3)ncc(OCCCN)c21
assay_metric: inhibition
result_number: 4.22

compound: CCOC(=O)C1=C(C)NC(Cn2ccnc2)=C(C(=O)OCC)C1c1ccc(C(C)(C)C)cc1 (stereo not given)
assay_metric: inhibition
result_number: 2.7

compound: COc1cccc(-c2cccc(-c3ccc(NC(=O)c4ccc([N+](=O)[O-])o4)cc3)n2)c1
assay_metric: inhibition
result_number: 66.2

compound: CC(C)c1ccc(NC(S)=NN=Cc2ccccn2)cc1
assay_metric: inhibition
result_number: 63.9

compound: Nc1ccnc2ccc(NC(=O)CCCCCc3ccccc3)cc12
assay_metric: inhibition
result_number: 1.43

compound: N=C(N)c1cc(Br)cc(NC(=O)Nc2cc(Br)cc(C(=N)N)c2)c1
assay_metric: inhibition
result_number: 2.46

compound: COc1ccc(Cl)cc1N1CCN(CCCNC(=O)c2ccc(-c3nc4ccc(C(F)(F)F)cc4[nH]3)c(C)c2)CC1
assay_metric: inhibition
result_number: 2.82

compound: CN1CCc2ccc(NC(=O)Nc3cccc([N+](=O)[O-])c3)cc2C1
assay_metric: inhibition
result_number: 1.58

compound: O=C(NCc1ccco1)c1ccc(CN2CCN(C(c3ccccc3)c3ccccc3)CC2)cc1
assay_metric: inhibition
result_number: 7.85

# context switch: different compound, same inhibition
stdin: What value of inhibition has been reported for the following compound? `CCCOc1ccc(C=C(CC(=O)O)c2nc3ccccc3s2)cc1OCC`
stdout: 2.27

###

- study_target: Hexose transporter 1 (Plasmodium falciparum)
- assay_notes: ST_JUDE_LEISH: Cytotoxicity at 2uM final concentration against transgenic Leishmania Mexicana promastigotes LmPfHT that are glucose transport deficient and complemented with the Plasmodium falciparum hexose transporter. Activity is measured by DNA content using SYBR green in vitro
- Type: functional
assay_metric: inhibition
The reply must contain the numeric value and, after it, the unit.

Below are worked cases with known answers.
compound: N=C(NCCCCCCCCNC(=N)Nc1ccc(Cl)cc1)Nc1ccc(Cl)cc1
result: 0.99%
//
compound: CCN1C(c2ccc(Cl)cc2)C(CNCc2ccccc2O)CC1(C)CO (stereo not given)
result: 7.62%
//
compound: CCn1c(Sc2ccc([N+](=O)[O-])c(C#N)c2)nnc1-c1cccc(Cl)c1
result: 0.29%

stdin: Record request: inhibition value, item CC(C)(C)c1ccc(CN2CCC(CNC(=O)c3cc(-c4cccc(F)c4)cs3)C2)cc1 (stereo not given)
stdout: 4.53%

stdin: Please give the measured inhibition for this compound: `CC(=O)Nc1nc(C(=O)Nc2ccc(-c3cccc(-c4nc5cc(C(F)(F)F)ccc5[nH]4)c3)cc2)cs1`
stdout: 2.2%

###

Listed here: items and their measured inhibition.
- study_target: Glucose transporter (Leishmania mexicana) (UniProt O61059)
- assay_notes: ST_JUDE_LEISH: Cytotoxicity at 2uM final concentration against transgenic Leishmania Mexicana promastigotes LmGT2 that are glucose transport deficient and complemented with the L. Mexicana glucose transporter 2. Activity is measured by DNA content using SYBR green in vitro
- Type: functional
# unit: % | format: bare number

compound: COc1cc2nc(NCCn3nc(C)cc3C)nc(NCCc3ccccc3)c2cc1OC
output_unit: %
inhibition: 1.08
--
compound: CC(C)C(=O)NC(c1ccc(N(C)C)cc1)c1cc(Cl)c2cccnc2c1O (centres undefined)
output_unit: %
inhibition: 1.29
--
compound: CC1(C)CC(=O)c2c(O)cc(OCc3ccncc3)cc2O1
output_unit: %
inhibition: 0.66
--
compound: CS(=O)(=O)c1ccc(CNCc2ccc(-c3ccc(-c4nc5cc(F)ccc5[nH]4)s3)cc2)cc1
output_unit: %
inhibition: 8.75

stdin: Could you share what inhibition was measured for Cc1sc2ccc(Cl)cc2c1S(=O)(=O)Nc1ccc2nccc(N3CC(C)NC(C)C3)c2c1 (centres undefined) , tested on Glucose transporter (Leishmania mexicana) (UniProt O61059)?
stdout: 6.32

stdin: Lab request: please report inhibition under test system Glucose transporter (Leishmania mexicana) (UniProt O61059) for `Cc1ccc2ccccc2c1CCCON1C(=N)N=C(N)NC1(C)C`
stdout: 2.74

stdin: Which measured inhibition belongs to `O=C(NC1CC1)c1ccc(Nc2nccc(-c3c(-c4cccc(NC(=O)c5c(F)cccc5F)c4)nn4ccccc34)n2)cc1` , tested on Glucose transporter (Leishmania mexicana) (UniProt O61059)?
stdout: 3.41

stdin: Which measured inhibition belongs to CC1(C)CN(CCC2CCC(NC(=O)/C=C/c3ccc(F)cc3F)CC2)Cc2ccc(C#N)cc21 (centres undefined) , tested on Glucose transporter (Leishmania mexicana) (UniProt O61059)?
stdout: -1.19

stdin: Please state recorded inhibition (tested on Glucose transporter (Leishmania mexicana) (UniProt O61059)) of `CCc1cn(CC(=O)N(CCOc2ccc(-c3ccc(C(F)(F)F)cc3)cc2)CCN(CC)CC)c(SCc2ccc(F)cc2)nc1=O`
stdout: -0.06

###

- study_target: Glucose transporter (Leishmania mexicana) (UniProt O61059)
- assay_notes: ST_JUDE_LEISH: Cytotoxicity at 2uM final concentration against transgenic Leishmania Mexicana promastigotes LmGT2 that are glucose transport deficient and complemented with the L. Mexicana glucose transporter 2. Activity is measured by DNA content using SYBR green in vitro
- Type: functional
Form field: inhibition (one value per entry).
Express your answer in %, writing the number without its unit.

compound: O=C(Nc1cccc(-c2ccc(-c3nc4ccccc4[nH]3)cc2)c1)Nc1ccc2c(c1)OCO2
output_unit: %
inhibition: 0.06

stdin: Which measured inhibition value corresponds to O=C(/C=C/c1ccc(Cl)c(Cl)c1)NC1CCC(CN2CCC(Cc3cc4ccccc4[nH]3)CC2)CC1 (stereo not given) ?
stdout: 3.2

stdin: Fill blank: measured inhibition of the compound Cc1c[nH]c(-c2cccc(C(=O)NC3CCC(CCN4CCc5ccc(C#N)cc5CC4)CC3)c2)n1 (stereo not given) is ____.
stdout: 1.55

stdin: Query: inhibition; subject: `Cc1noc(C)c1-c1ccc2c(Nc3ccccc3C(C)(C)C)c(C(=O)NCc3ccccc3)cnc2c1`
stdout: 3.62

stdin: Quick one: inhibition for CCC(C)(C)C1CCc2[nH]c3ccccc3c(=O)c2C1 (stereo not given) ?
stdout: 6.59

###

- study_target: Hexose transporter 1 (Plasmodium falciparum) (UniProt O97467)
- assay_notes: ST_JUDE_LEISH: Cytotoxicity at 2uM final concentration against transgenic Leishmania Mexicana promastigotes LmPfHT that are glucose transport deficient and complemented with the Plasmodium falciparum hexose transporter. Activity is measured by DNA content using SYBR green in vitro
- Format: functional
Measured inhibition, listed per entry for reference.
Report the figure in % without appending any unit label.

Example results:
compound: O=C1COC2(CN1C1CCN(Cc3ccc(O)cc3Cl)C1)c1ccccc1-c1ccccc12 (stereo not given)
inhibition (%): 2.74
--
compound: CCOc1cc(C(=O)NC2CC(C)(C)NC(C)(C)C2)ccc1-c1nc2cc(Cl)ccc2[nH]1
inhibition (%): 1.71
--
compound: CCN(CC)CCCC(C)Nc1c(-c2ccc(Br)cc2)cnc2ccccc12 (stereo not given)
inhibition (%): 14.4
--
compound: c1ccc2[nH]c(-c3ccc(-c4ccc(CNCCc5ccncc5)cc4)s3)nc2c1
inhibition (%): 5.02

Consider now this further compound.
stdin: Fill in the recorded inhibition for this compound, with Hexose transporter 1 (Plasmodium falciparum) (UniProt O97467) as test system: `NS(=O)(=O)c1cccc(Br)c1`
stdout: 0.12

###

- study_target: Glucose transporter (Leishmania mexicana)
- assay_notes: ST_JUDE_LEISH: Cytotoxicity at 2uM final concentration against transgenic Leishmania Mexicana promastigotes LmGT2 that are glucose transport deficient and complemented with the L. Mexicana glucose transporter 2. Activity is measured by DNA content using SYBR green in vitro
- Format: functional
inhibition reference
The answer is to be given in %; state only the numeric part.

Answered cases to consult:
compound: CNc1nc(Nc2ccccc2C)nc2ccccc12
study_target: Glucose transporter (Leishmania mexicana)
result_number: 18.3
//
compound: CC(CON1C(N)=NC(N)=NC1(C)C)c1ccc(Cl)cc1Cl (stereo not given)
study_target: Glucose transporter (Leishmania mexicana)
result_number: 24.2

stdin: Query: inhibition; subject: `Cc1ccc(-c2cncc(-c3cc(NC4CCN(Cc5ccccc5)CC4)nc(-c4ccccc4)n3)c2)cc1`
stdout: 1.96

stdin: Returns the measured inhibition for the input compound. Input: CCCCCN1CCCCC(NS(=O)(=O)c2ccc(C(=O)Nc3cccc(C(F)(F)F)c3)cc2)C1 (stereo not given)
stdout: 3.25

stdin: Form field: reported inhibition of `CN1CCN(c2ccnc3cc4c(cc23)N(Cc2ccccc2)CC4)CC1`
stdout: 0.13

stdin: I'd like to know its inhibition. The compound in question is `CCCN(Cc1ccc(C)cc1)Cc1cc(=O)c2cc(Cl)ccc2[nH]1`
stdout: 9.04

stdin: // query inhibition value for entry `O=C(Nc1ccc(Cl)cc1)c1ccc(CN2CCCN(CC3CCCCC3)CC2)cc1`
stdout: 5.54

stdin: What does the record list as inhibition for `Cc1cc(C(=O)NC2CCN(CC3(c4ccccc4)CCCCC3)CC2)on1` ?
stdout: -0.45

stdin: Query: inhibition; subject: `CN1CCC(C(=O)Nc2cccc(-c3ccc(-c4nc5cc(C(F)(F)F)ccc5[nH]4)s3)c2)CC1`
stdout: 6.1

stdin: inhibition lookup needed for `CCS(=O)(=O)N1CCN(c2nc(-c3ccccc3)nc(COC)c2Cc2ccccc2F)CC1` , thanks.
stdout: 4.99

stdin: For the compound shown here, `FC(F)(F)COc1ccc2ccccc2c1CNCCCCCCNCc1c(OCC(F)(F)F)ccc2ccccc12` , give the reported inhibition.
stdout: -1.38

stdin: Can you share its inhibition? I mean this compound: `COc1c(C2CCN(CCCCNC(=O)c3cc(-c4ccc(Cl)cc4)[nH]c3C)CC2)ccc2c1CCCC2`
stdout: 4.31

stdin: Which inhibition is reported for this compound? COc1cc(Nc2nccc(NCC(O)c3ccc(C(F)(F)F)cc3)n2)cc(OC)c1OC (stereo not given)
stdout: 2.81

stdin: What value of measured inhibition is listed for `COc1ccc2nccc([C@@H](O)CN3CCC(NC(=O)c4cc5c(F)cc(F)cc5[nH]4)CC3)c2n1` ?
stdout: 85.4

stdin: What does the data say about its inhibition? Entry: `Cc1[nH]c(C)c(-c2ccc(OCc3ccccc3C(F)(F)F)nc2)c(=O)c1Br`
stdout: 1.94
